# assay.summary: xn = mol fraction of the nth substance listed
# details: 308.15 K; 100.5 kPa; Liquid; x1 = 0.35
readout: viscosity (mPa·s)
One number for each entry, in mPa·s.

CCCCCC(=O)OCC [ethyl hexanoate] + CCO	0.763

Batch lookup, viscosity per entry.
1. CCOC(=O)c1ccccc1 [ethyl benzoate] + CCO
2. CCCCCCCC(=O)OCC [ethyl octanoate] + CCO
3. CC(=O)OCCC(C)C [3-methylbutyl ethanoate] + CCO
4. CCOC(=O)Cc1ccccc1 [ethyl phenylacetate] + CCO
5. CCCC(=O)OCCC(C)C [3-methylbutyl butanoate] + CCO

1: 1.072; 2: 0.969; 3: 0.689; 4: 1.188; 5: 0.833

###

# assay.summary: xn = mol fraction of the nth substance listed
# details: 308.15 K; 101 kPa; Liquid; x1 = 0.7
readout: mass density (kg/m3)
Answers are plain numbers, in kg/m3.

CCCCCC(=O)OCC [ethyl hexanoate] + CCO	845.33
CCOC(=O)Cc1ccccc1 [ethyl phenylacetate] + CCO	985.19
CCCC(=O)OCCC(C)C [3-methylbutyl butanoate] + CCO	839.85
CCCCCCCC(=O)OCC [ethyl octanoate] + CCO	843.94

Turning now to a further record.
Form field mass density, entry CCOC(=O)c1ccccc1 [ethyl benzoate] + CCO : 994.7

###

Can you tell me viscosity for the items I'm about to list?
# assay.summary: xn = mol fraction of the nth substance listed
# details: 308.15 K; 100.5 kPa; Liquid; x1 = 0.65
One number for each entry, in mPa·s.

CCCC(=O)OCCC(C)C [3-methylbutyl butanoate] + CCO	0.872
CCOC(=O)Cc1ccccc1 [ethyl phenylacetate] + CCO	1.513
CC(=O)OCCC(C)C [3-methylbutyl ethanoate] + CCO	0.667
CCCCCC(=O)OCC [ethyl hexanoate] + CCO	0.767
CCCCCCCC(=O)OCC [ethyl octanoate] + CCO	1.068

Form field viscosity, entry CCOC(=O)c1ccccc1 [ethyl benzoate] + CCO : 1.286

###

# assay.summary: xn = mol fraction of the nth substance listed
# details: 308.15 K; 100.5 kPa; Liquid; x1 = 0.8
The threshold is 0.9 mPa·s. Values of viscosity beneath it are tagged 1; values meeting or exceeding it are tagged 0.

CCCCCCCC(=O)OCC [ethyl octanoate] + CCO	0
CCOC(=O)Cc1ccccc1 [ethyl phenylacetate] + CCO	0
CCOC(=O)c1ccccc1 [ethyl benzoate] + CCO	0
CCCCCC(=O)OCC [ethyl hexanoate] + CCO	1

Item CC(=O)OCCC(C)C [3-methylbutyl ethanoate] + CCO : viscosity beneath 0.9 mPa·s, strictly? 1

###

# assay.summary: xn = mol fraction of the nth substance listed
# details: 298.15 K; 100.5 kPa; Liquid; x1 = 0.65
readout: viscosity (mPa·s)
Numbers only, in mPa·s.

CCOC(=O)Cc1ccccc1 [ethyl phenylacetate] + CCO	1.821
CCCC(=O)OCCC(C)C [3-methylbutyl butanoate] + CCO	1.021
CCCCCC(=O)OCC [ethyl hexanoate] + CCO	0.892
CCCCCCCC(=O)OCC [ethyl octanoate] + CCO	1.262
CC(=O)OCCC(C)C [3-methylbutyl ethanoate] + CCO	0.773

Form field viscosity, entry CCOC(=O)c1ccccc1 [ethyl benzoate] + CCO : 1.544

###

# assay.summary: xn = mol fraction of the nth substance listed
# details: 318.15 K; 101 kPa; Liquid; x1 = 0.95
Can you tell me mass density for the items I'm about to list?
Give bare numbers, in kg/m3.

Some compounds with known mass density results, for comparison:
CCCCCCCC(=O)OCC [ethyl octanoate] + CCO	843.57
CCOC(=O)Cc1ccccc1 [ethyl phenylacetate] + CCO	1003.61
CCCCCC(=O)OCC [ethyl hexanoate] + CCO	845.83
CCCC(=O)OCCC(C)C [3-methylbutyl butanoate] + CCO	839.12

Form field mass density, entry CCOC(=O)c1ccccc1 [ethyl benzoate] + CCO : 1017.33

###

# assay.summary: xn = mol fraction of the nth substance listed
# details: 318.15 K; 100.5 kPa; Liquid; x1 = 0.45
readout: viscosity (mPa·s)
Give bare numbers, in mPa·s.

CC(=O)OCCC(C)C [3-methylbutyl ethanoate] + CCO	0.586
CCCCCC(=O)OCC [ethyl hexanoate] + CCO	0.657
CCOC(=O)Cc1ccccc1 [ethyl phenylacetate] + CCO	1.099
CCCC(=O)OCCC(C)C [3-methylbutyl butanoate] + CCO	0.723
CCOC(=O)c1ccccc1 [ethyl benzoate] + CCO	0.964

Form field viscosity, entry CCCCCCCC(=O)OCC [ethyl octanoate] + CCO : 0.859

###

# assay.summary: xn = mol fraction of the nth substance listed
# details: 318.15 K; 100.5 kPa; Liquid; x1 = 0.75
The threshold is 0.8 mPa·s. Values of viscosity beneath it are tagged Y; values meeting or exceeding it are tagged N.

Some solved entries appear below for comparison.
CCOC(=O)c1ccccc1 [ethyl benzoate] + CCO	N
CCCC(=O)OCCC(C)C [3-methylbutyl butanoate] + CCO	Y
CC(=O)OCCC(C)C [3-methylbutyl ethanoate] + CCO	Y
CCOC(=O)Cc1ccccc1 [ethyl phenylacetate] + CCO	N
CCCCCC(=O)OCC [ethyl hexanoate] + CCO	Y

Turning now to a further compound:
Item CCCCCCCC(=O)OCC [ethyl octanoate] + CCO : viscosity beneath 0.8 mPa·s, strictly? N

###

Can you tell me viscosity for the items I'm about to list?
# assay.summary: xn = mol fraction of the nth substance listed
# details: 308.15 K; 100.5 kPa; Liquid; x1 = 0.5
Numbers after ± are expanded uncertainties.

Some compounds with known viscosity results, for comparison:
CCOC(=O)Cc1ccccc1 [ethyl phenylacetate] + CCO	1.344 ± 0.019 mPa·s
CCCC(=O)OCCC(C)C [3-methylbutyl butanoate] + CCO	0.846 ± 0.016 mPa·s
CC(=O)OCCC(C)C [3-methylbutyl ethanoate] + CCO	0.671 ± 0.015 mPa·s
CCOC(=O)c1ccccc1 [ethyl benzoate] + CCO	1.173 ± 0.018 mPa·s
CCCCCC(=O)OCC [ethyl hexanoate] + CCO	0.759 ± 0.015 mPa·s

Turning now to a further record.
Form field viscosity, entry CCCCCCCC(=O)OCC [ethyl octanoate] + CCO : 1.016 ± 0.017 mPa·s

###

# assay.summary: xn = mol fraction of the nth substance listed
# details: 298.15 K; 101 kPa; Liquid; x1 = 0.85
readout: mass density (kg/m3)
One number for each entry, in kg/m3.

Some compounds with known mass density results, for comparison:
CCOC(=O)Cc1ccccc1 [ethyl phenylacetate] + CCO	1012.41
CCOC(=O)c1ccccc1 [ethyl benzoate] + CCO	1024.57
CCCC(=O)OCCC(C)C [3-methylbutyl butanoate] + CCO	854.28
CCCCCC(=O)OCC [ethyl hexanoate] + CCO	861.04

Turning now to a further record.
Form field mass density, entry CCCCCCCC(=O)OCC [ethyl octanoate] + CCO : 858

###

# assay.summary: xn = mol fraction of the nth substance listed
# details: 318.15 K; 100.5 kPa; Liquid; x1 = 0.35
The threshold is 0.7 mPa·s. Values of viscosity beneath it are tagged satisfied; values meeting or exceeding it are tagged not satisfied.

CCOC(=O)c1ccccc1 [ethyl benzoate] + CCO	not satisfied
CCOC(=O)Cc1ccccc1 [ethyl phenylacetate] + CCO	not satisfied
CCCCCC(=O)OCC [ethyl hexanoate] + CCO	satisfied
CCCCCCCC(=O)OCC [ethyl octanoate] + CCO	not satisfied

Item CC(=O)OCCC(C)C [3-methylbutyl ethanoate] + CCO : viscosity beneath 0.7 mPa·s, strictly? satisfied

###

# assay.summary: xn = mol fraction of the nth substance listed
# details: 298.15 K; 100.5 kPa; Liquid; x1 = 0.95
Can you tell me viscosity for the items I'm about to list?
Give bare numbers, in mPa·s.

CCOC(=O)c1ccccc1 [ethyl benzoate] + CCO	1.917
CCCC(=O)OCCC(C)C [3-methylbutyl butanoate] + CCO	1.099
CCOC(=O)Cc1ccccc1 [ethyl phenylacetate] + CCO	2.33

Batch lookup, viscosity per entry.
1. CCCCCC(=O)OCC [ethyl hexanoate] + CCO
2. CCCCCCCC(=O)OCC [ethyl octanoate] + CCO
3. CC(=O)OCCC(C)C [3-methylbutyl ethanoate] + CCO

1. 0.94
2. 1.391
3. 0.804

###

# assay.summary: xn = mol fraction of the nth substance listed
# details: 308.15 K; 100.5 kPa; Liquid; x1 = 0.75
Can you tell me viscosity for the items I'm about to list?
Give bare numbers, in mPa·s.

Some molecules with known viscosity results, for comparison:
CC(=O)OCCC(C)C [3-methylbutyl ethanoate] + CCO	0.675
CCOC(=O)c1ccccc1 [ethyl benzoate] + CCO	1.37
CCCC(=O)OCCC(C)C [3-methylbutyl butanoate] + CCO	0.891

Batch lookup, viscosity per entry.
1. CCCCCC(=O)OCC [ethyl hexanoate] + CCO
2. CCOC(=O)Cc1ccccc1 [ethyl phenylacetate] + CCO
3. CCCCCCCC(=O)OCC [ethyl octanoate] + CCO

1. 0.779
2. 1.635
3. 1.103
